These entries and their values trace back to patent US20250034271A1.

SYSTEM_NAME: T1, Histidine-tagged human CD40 protein (hCD40-His) (human, UniProt P25942 21-193)
T1 construct: not shown: histidine tag
PROTOCOL_DETAILS: SPR, Biacore T200; antibody on Protein A chip, hCD40-His injected; 1:1 fit
Recorded pKd values for a group of binders are listed next.
Reminder that pKd means the negative base-10 logarithm of the concentration expressed in mol/L.

1) 4H6-H3K2-IgG4 (antibody, V domains shown, Humanized) VH: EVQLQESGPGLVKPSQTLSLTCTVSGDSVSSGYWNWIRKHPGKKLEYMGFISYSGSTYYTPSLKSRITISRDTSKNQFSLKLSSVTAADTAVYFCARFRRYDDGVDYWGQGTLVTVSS VL: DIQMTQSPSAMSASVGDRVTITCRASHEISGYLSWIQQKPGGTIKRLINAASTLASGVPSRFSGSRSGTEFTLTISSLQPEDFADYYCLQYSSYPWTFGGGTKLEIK; 7.27

Shift focus to the following entry.
Q: Need pKd, item 6A7-H2K2-IgG4 (antibody, V domains shown, Humanized) VH: QVQLVQSGAEVKKPGASVKVSCKASGYTFISYYIYWVRQAPGQGLEWIGGINPRNGGTNFNEKFKSRATLTVDTSISTAYMELSRLRSEDTAVYYCARHGNGVYWGQGTTVTVSS VL: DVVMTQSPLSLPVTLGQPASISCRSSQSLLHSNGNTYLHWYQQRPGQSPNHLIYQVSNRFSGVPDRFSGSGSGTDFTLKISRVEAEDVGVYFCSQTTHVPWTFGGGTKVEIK
Result: 6.72
